measurement target: UniProt P43116
Sequence (P43116 whole entry): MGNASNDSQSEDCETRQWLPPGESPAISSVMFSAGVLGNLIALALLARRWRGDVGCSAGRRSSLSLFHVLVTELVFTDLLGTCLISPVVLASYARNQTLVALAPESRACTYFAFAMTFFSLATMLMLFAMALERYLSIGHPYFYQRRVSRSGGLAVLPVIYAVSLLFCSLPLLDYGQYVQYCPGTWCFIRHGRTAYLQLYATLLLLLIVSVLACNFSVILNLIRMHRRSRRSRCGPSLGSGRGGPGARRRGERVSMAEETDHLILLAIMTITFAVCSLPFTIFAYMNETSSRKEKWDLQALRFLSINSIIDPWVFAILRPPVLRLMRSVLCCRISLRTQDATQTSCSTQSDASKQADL
procedure details: hEP2 b-arrestin assay (PathHunter HEK 293 PTGER2 b-arrestin cells)
Format: cell-based
condition summary: antagonistic activity on hEP2; mean where measured multiple times
property label: IC50 (nM)
Answer in nM, number only, no unit symbol.

Below, each entry is followed by its recorded IC50 result.
{"compound": "Cc1ccc(F)c2c1cc(C)n2CCNc1cc(-c2ccc(-c3ncno3)cc2)ncn1 [compound 79]", "readout units": "nM", "IC50": 11}
{"compound": "Cc1ccc(F)c2c1cc(C)n2CCNc1cc(-c2cc(F)c(S(N)(=O)=O)c(F)c2)ncn1 [compound 166]", "readout units": "nM", "IC50": 131}
{"compound": "COc1ccc(F)c2c1cc(C)n2CCNc1cc(-c2ccc(CO)c(Cl)c2)ncn1 [compound 27]", "readout units": "nM", "IC50": 10}
{"compound": "COc1cccc2c1cc(C)n2CCNc1cc(-c2cc(F)c(C(=O)O)s2)ncn1 [compound 49]", "readout units": "nM", "IC50": 4}
{"compound": "Cc1cc2c(Cl)cccc2n1CCNc1cc(-c2ccc(C(=O)O)c(CC(C)C)c2)ncn1 [compound 268]", "readout units": "nM", "IC50": 11}

Q: Which IC50 is listed for Cc1ccc(F)c2c1cc(C)n2CCNc1cc(-c2ccc(S(N)(=O)=O)c(C(F)(F)F)c2)ncn1 [compound 379] ?
A: 63

Q: Which IC50 is listed for COc1ccc(F)c2c1cc(C)n2CCNc1cc(-c2ccc(-c3cc(N)no3)cc2)ncn1 [compound 304] ?
A: 2

Q: Which IC50 is listed for COc1cccc2c1cc(C)n2CCNc1cc(-c2ccc(-c3cc(N)no3)cc2)ncn1 [compound 180] ?
A: 3
